# Test system: K-562 leukemia
# MEASUREMENT_NOTES: NCI-60 one-dose screen, 48 h (100 = growth as untreated, 0 = no growth, -100 = all killed)
# RUN_CONDITIONS: 10 µM unless noted
The panel holds about 83,000 compounds, 20% with a hit somewhere; the sample as a whole holds those more often.
MEASURED_ATTRIBUTE: growth (%)

INSERT INTO assay_data (compound, tested_target, measured_attribute, endpoint_result) VALUES
  ('CC(C)Cc1ccc(C(C)C(=O)NCc2ccc(Cn3c(=O)sn(CCCCl)c3=O)cc2)cc1 (centres undefined)', 'K-562 leukemia', 'growth', 2.16),
  ('COc1ccc(NC(=S)Nc2ccccn2)cc1', 'K-562 leukemia', 'growth', 87.1),
  ('N#CCCOc1ccccc1', 'K-562 leukemia', 'growth', 89.6),
  ('CC(O)(CC(=O)CC(=O)c1ccccc1)c1ccccc1 (centres undefined)', 'K-562 leukemia', 'growth', 91.2),
  ('CC(/C=N/N1C(=O)c2ccccc2C1=O)c1ccccc1 (centres undefined)', 'K-562 leukemia', 'growth', 106),
  ('N#C/C(=C/c1c(O)ccc2ccccc12)C(N)=O', 'K-562 leukemia', 'growth', 97.4),
  ('O=C1c2ccccc2C(=O)N1/N=C/c1ccc2c(c1)OCO2', 'K-562 leukemia', 'growth', 99.8),
  ('C1CCCCNCCC1', 'K-562 leukemia', 'growth', 104),
  ('CCCCCCCCCCCCCCCCOc1ccc(C)cc1', 'K-562 leukemia', 'growth', 108),
  ('NC(=O)c1ccccc1OCC(O)CO (centres undefined)', 'K-562 leukemia', 'growth', 107),
  ('Clc1ccc(SSc2ccc(Cl)cc2)cc1', 'K-562 leukemia', 'growth', 100),
  ('CCN(CC)CCC(CNc1c2ccc([N+](=O)[O-])cc2nc2cc(OC)c(OC)cc12)c1ccccc1 (centres undefined)', 'K-562 leukemia', 'growth', -18.8),
  ('CCCCCCCCCCCCOc1ccccc1C=O', 'K-562 leukemia', 'growth', 83.7),
  ('O=C(O)C1(C(=O)O)CCC1.[NH2-].[NH2-].[Pt+2]', 'K-562 leukemia', 'growth', 65.9),
  ('Nc1nc2ncc(CNc3ccc(C(=O)N[C@@H](CCc4nn[nH]n4)C(=O)O)cc3)nc2c(=O)[nH]1', 'K-562 leukemia', 'growth', 90.7),
  ('CCN(CC)CCc1nc(-c2ccccc2)no1', 'K-562 leukemia', 'growth', 118),
  ('O=C(CCc1ccc(O)cc1)N/N=C/c1cc(Br)ccc1O', 'K-562 leukemia', 'growth', 15.4),
  ('O=C1c2c(O)cc(O)cc2OC(c2ccc(O)c(O)c2)C1O (centres undefined)', 'K-562 leukemia', 'growth', 104),
  ('Cc1n[nH]c(=O)n(/N=C\c2c[nH]c3ccccc23)c1=O', 'K-562 leukemia', 'growth', 93.7),
  ('C[N+](C)(C)CN1C(=O)c2ccccc2C1=O', 'K-562 leukemia', 'growth', 92),
  ('Nc1ccc(N=Nc2ccc(S(=O)(=O)O)cc2)cc1S(=O)(=O)O', 'K-562 leukemia', 'growth', 105),
  ('Clc1nc(Oc2ccccc2)nc(-c2cn(-c3ccccc3)c3ccccc23)n1', 'K-562 leukemia', 'growth', 36.9),
  ('CC(=O)Oc1cc(C(=O)O)cc(OC(C)=O)c1OC(C)=O', 'K-562 leukemia', 'growth', 108),
  ('CC1=C[C@H]2c3c(c(O)c(O)c4oc5cc(O)cc(O)c5c(=O)c34)[C@H](c3cc(O)c(O)c4oc5cc(O)cc(O)c5c(=O)c34)[C@H]2C(C)(C)C1', 'K-562 leukemia', 'growth', 2.32);
